Provide the reported growth of each item.
# Test system: HCT-116 colon
# protocol-summary: NCI-60 one-dose screen, 48 h (100 = growth as untreated, 0 = no growth, -100 = all killed)
# assay-conditions: 10 µM unless noted
Compounds without any hit were thinned out: in the full panel of roughly 83,000, 20% have a hit.
Numbers only, in %.

Provide the reported growth of each entry below, same order.
1. CO/N=C1\CCc2c(sc(NC(=O)c3cccc(C(F)(F)F)c3)c2C(N)=O)C1
2. O=C(CSc1nc2sc3c(c2c(=O)n1-c1ccc(Cl)cc1)CCCC3)NNC(=O)Nc1cccc(C(F)(F)F)c1
3. O=C(N/N=C/c1ccc([N+](=O)[O-])s1)c1[nH]c2ccc(Br)cc2c1-c1ccccc1
4. NS(=O)(=O)c1cccc(Nc2nc(SCC(=O)c3ccc([N+](=O)[O-])cc3)nc3ccccc23)c1
5. COc1cc2nc(-c3ccc(C(F)(F)F)cc3)cc(OCCCNCC3CCCO3)c2cc1OC (stereo not given)

1: 5; 2: 5.54; 3: -7.92; 4: 36.8; 5: 22.6

====

# Test system: SF-268 CNS
# protocol-summary: NCI-60 one-dose screen, 48 h (100 = growth as untreated, 0 = no growth, -100 = all killed)
# assay-conditions: 10 µM unless noted
Compounds without any hit were thinned out: in the full panel of roughly 83,000, 20% have a hit.
TRUE means recorded growth is 70% or above; FALSE means it is below 70%.

Would you please look over these solved cases?
[
  {
    "molecule-smiles": "COc1ccc(COc2ccc(/C=C3/C(=O)Nc4cc(Cl)ccc43)cc2)cc1",
    "group-label": "TRUE"
  },
  {
    "molecule-smiles": "COc1cc(N=Cc2sc(Nc3nccs3)nc2O)cc(OC)c1OC",
    "group-label": "TRUE"
  },
  {
    "molecule-smiles": "Clc1ccc2c(NCCCn3ccnc3)c3oc4ccccc4c3nc2c1",
    "group-label": "FALSE"
  },
  {
    "molecule-smiles": "Nc1cc(-c2c[nH]c3ccc(Cl)cc23)nc2cc(-c3c[nH]c4ccc(Cl)cc34)nn12",
    "group-label": "FALSE"
  },
  {
    "molecule-smiles": "Cc1c(Nc2nnc(SCC(=O)Nc3sc4c(c3C#N)CCCC4)s2)c(=O)n(-c2ccccc2)n1C",
    "group-label": "TRUE"
  },
  {
    "molecule-smiles": "O=C(CSc1nc2sc3c(c2c(=O)n1-c1ccc(Cl)cc1)CCCC3)NNC(=O)Nc1ccc(Cl)c(C(F)(F)F)c1",
    "group-label": "FALSE"
  },
  {
    "molecule-smiles": "Cn1cc(-c2cc(N)n3nc(-c4cn(C)c5ccc(F)cc45)cc3n2)c2cc(F)ccc21",
    "group-label": "FALSE"
  }
]

For the next question, use this compound.
Threshold query (growth >= 70%) on `Cn1c(SCC(=O)Nc2ccc(-c3nc4ccc([N+](=O)[O-])cc4[nH]3)cc2)nc2ccccc2c1=O`
TRUE

====

# Test system: UO-31 renal
# protocol-summary: NCI-60 one-dose screen, 48 h (100 = growth as untreated, 0 = no growth, -100 = all killed)
# assay-conditions: 10 µM unless noted
About 83,000 compounds went through this panel and 20% of them were active in at least one assay; those are over-represented in the sample as a whole.
metric-name: growth (%)
Give bare numbers, in %.

Some solved entries appear below for comparison.
[
  {
    "molecule-smiles": "Clc1ccc2oc3c(NCCCn4ccnc4)c4ccccc4nc3c2c1",
    "unit-tag": "%",
    "growth": 30
  },
  {
    "molecule-smiles": "CCOC(=O)c1sc(N)c(C(=O)OCC)c1C",
    "unit-tag": "%",
    "growth": 31.3
  }
]

Look up growth for the entries below, preserving their order.
1. N#Cc1c(-c2ccc(Cl)cc2)nc(SCc2ccc([N+](=O)[O-])cc2)nc1N1CCNCC1
2. O=C(CN1C(=O)/C(=C/c2ccccc2)SC1=S)N1CCOCC1
3. COc1ccc(C(=O)/C=C/c2ccc(Oc3nc(NCCO)nc(N4CCOCC4)n3)c(OC)c2)cc1

22.4
71.4
67.4

Where do the numbers come from? From PubChem BioAssay (NCI).
